Sourced from ChEMBL document CHEMBL5030567

assay: Stability in human plasma assessed as half life; type: ADME, cell-free
Listed here: items and their measured t1/2.
quantity.kind: t1/2 (h)

>  <structure.notation>
CC(=O)N[C@H]1CC(=O)NCCCC[C@@H](C(=O)N[C@@H](CCCNC(=N)N)C(=O)c2nc3ccccc3s2)NC(=O)CNC1=O

>  <quantity.kind>
t1/2

>  <measurement.units>
h

>  <inequality.sign>
>

>  <experimental.value>
4.818

$$$$
>  <structure.notation>
CC(=O)N[C@H]1CCCCNC(=O)CC[C@@H](C(=O)N[C@@H](CCCNC(=N)N)C(=O)c2nc3ccccc3s2)NC(=O)[C@H](CCCNC(=N)N)NC1=O

>  <quantity.kind>
t1/2

>  <measurement.units>
h

>  <inequality.sign>
=

>  <experimental.value>
2.52

$$$$
>  <structure.notation>
CC(=O)N[C@H]1CC(=O)NCCCC[C@@H](C(=O)N[C@@H](CCCNC(=N)N)C(=O)c2nc3ccccc3s2)NC(=O)[C@H](C)NC1=O

>  <quantity.kind>
t1/2

>  <measurement.units>
h

>  <inequality.sign>
=

>  <experimental.value>
3.602

$$$$
>  <structure.notation>
CC(=O)N[C@H]1CCCCNC(=O)C[C@@H](C(=O)N[C@@H](CCCNC(=N)N)C(=O)c2nc3ccccc3s2)NC(=O)[C@H](CC(C)C)NC1=O

>  <quantity.kind>
t1/2

>  <measurement.units>
h

>  <inequality.sign>
>

>  <experimental.value>
4.82

$$$$

====

Listed here: items and their measured t1/2.
assay: Stability in mouse plasma assessed as half life; assay type: ADME, cell-free

>  <structure.notation>
CC(=O)N[C@H]1CC(=O)NCCCC[C@@H](C(=O)N[C@@H](CCCNC(=N)N)C(=O)c2nc3ccccc3s2)NC(=O)[C@H](C(C)C)NC1=O

>  <measurement.units>
h

>  <inequality.sign>
>

>  <t1/2>
4.818

$$$$
>  <structure.notation>
CC(=O)N[C@H]1CC(=O)NCCCC[C@@H](C(=O)N[C@@H](CCCNC(=N)N)C(=O)c2nc3ccccc3s2)NC(=O)[C@H](CC(N)=O)NC1=O

>  <measurement.units>
h

>  <inequality.sign>
>

>  <t1/2>
4.818

$$$$
>  <structure.notation>
CC(=O)N[C@H]1CCCCNC(=O)CC[C@@H](C(=O)N[C@@H](CCCNC(=N)N)C(=O)c2nc3ccccc3s2)NC(=O)[C@H](CC(C)C)NC1=O

>  <measurement.units>
h

>  <inequality.sign>
=

>  <t1/2>
4.57

$$$$
>  <structure.notation>
CC(=O)N[C@H]1CCCCNC(=O)CC[C@@H](C(=O)N[C@@H](CCCNC(=N)N)C(=O)c2nc3ccccc3s2)NC(=O)[C@H](CCCNC(=N)N)NC1=O

>  <measurement.units>
h

>  <inequality.sign>
=

>  <t1/2>
2.6

$$$$

====

experiment: Plasma protein binding in mouse assessed as unbound fraction; type: ADME, cell-free
Numbered stars: 1 amine (or outer) side, 2 acyl side, 3 side chain; on linkers, the order of the positions; unused ones are H or OH. Square brackets hold non-standard residues; d marks the D form. Peptide text beside a SMILES is read from it. X1 = N=C(N)NCCC[C@H](N[*:1])C(=O)c1nc2ccc(C(=O)[*:2])cc2s1
quantity.kind: fraction unbound

>  <compound>
CC(=O)N[C@@H](CO)C(=O)N[C@@H](CCCCN)C(=O)N[C@@H](CC(C)C)C(=O)N[C@@H](CCCNC(=N)N)C(=O)c1nc2ccc(C(=O)N[C@H](C(N)=O)C(C)C)cc2s1 (Ac-SKL[X1]V-NH2)

>  <experimental.value>
0.167

$$$$
>  <compound>
CC(=O)N[C@H]1CC(=O)NCCCC[C@@H](C(=O)N[C@@H](CCCNC(=N)N)C(=O)c2nc3ccccc3s2)NC(=O)[C@H](CC(C)C)NC1=O

>  <experimental.value>
0.286

$$$$
>  <compound>
CC(=O)N[C@H]1CCCCNC(=O)CC[C@@H](C(=O)N[C@@H](CCCNC(=N)N)C(=O)c2nc3ccccc3s2)NC(=O)[C@H](CC(C)C)NC1=O

>  <experimental.value>
0.184

$$$$
>  <compound>
CC(=O)N[C@H]1CCCCNC(=O)CC[C@@H](C(=O)N[C@@H](CCCNC(=N)N)C(=O)c2nc3ccccc3s2)NC(=O)[C@H](CCCNC(=N)N)NC1=O

>  <experimental.value>
0.259

$$$$
>  <compound>
CC(=O)N[C@H]1CCCCNC(=O)C[C@@H](C(=O)N[C@@H](CCCNC(=N)N)C(=O)c2nc3ccccc3s2)NC(=O)[C@H](CC(C)C)NC1=O

>  <experimental.value>
0.853

$$$$

====

Listed here: items and their measured pIC50.
molecular target: Coagulation factor X (Homo sapiens, UniProt P00742); experiment: Inhibition of recombinant C-terminal 10His-tagged human coagulation factor 10a (Leu24 to Lys488 residues) expressed in baculovirus infected Sf9 insect cells using Bz-Ile-Glu-Gly-Arg-pNA as substrate preincubated for 30 mins followed by substrate addition by chromogenic assay
pIC50: −log10 of the molar value. Numbered stars: 1 amine (or outer) side, 2 acyl side, 3 side chain; on linkers, the order of the positions; unused ones are H or OH. Square brackets hold non-standard residues; d marks the D form. Peptide text beside a SMILES is read from it. X1 = N=C(N)NCCC[C@H](N[*:1])C(=O)c1nc2ccc(C(=O)[*:2])cc2s1
quantity.kind: pIC50

>  <compound>
CC(=O)N[C@H]1CC(=O)NCCCC[C@@H](C(=O)N[C@@H](CCCNC(=N)N)C(=O)c2nc3ccccc3s2)NC(=O)[C@H](CCC(N)=O)NC1=O

>  <inequality.sign>
<

>  <experimental.value>
4.70

$$$$
>  <compound>
CC(=O)N[C@@H](CO)C(=O)N[C@@H](CCCCN)C(=O)N[C@@H](CC(C)C)C(=O)N[C@@H](CCCNC(=N)N)C(=O)c1nc2ccc(C(=O)N[C@H](C(N)=O)C(C)C)cc2s1 (Ac-SKL[X1]V-NH2)

>  <inequality.sign>
=

>  <experimental.value>
6.11

$$$$
>  <compound>
CC(=O)N[C@H]1CCCCNC(=O)CC[C@@H](C(=O)N[C@@H](CCCNC(=N)N)C(=O)c2nc3ccccc3s2)NC(=O)[C@H](CCCNC(=N)N)NC1=O

>  <inequality.sign>
=

>  <experimental.value>
6.81

$$$$
>  <compound>
CC(=O)N[C@H]1CC(=O)NCCCC[C@@H](C(=O)N[C@@H](CCCNC(=N)N)C(=O)c2nc3ccccc3s2)NC(=O)[C@H](C)NC1=O

>  <inequality.sign>
<

>  <experimental.value>
4.70

$$$$
>  <compound>
CC(=O)N[C@H]1CC(=O)NCCCC[C@@H](C(=O)N[C@@H](CCCNC(=N)N)C(=O)c2nc3ccccc3s2)NC(=O)[C@H]([C@@H](C)O)NC1=O

>  <inequality.sign>
=

>  <experimental.value>
4.87

$$$$

====

assay: Stability in mouse plasma assessed as half life; type: ADME, cell-free
Numbered stars: 1 amine (or outer) side, 2 acyl side, 3 side chain; on linkers, the order of the positions; unused ones are H or OH. Square brackets hold non-standard residues; d marks the D form. Peptide text beside a SMILES is read from it. X1 = N=C(N)NCCC[C@H](N[*:1])C(=O)c1nc2ccc(C(=O)[*:2])cc2s1
Classify: TRUE when t1/2 is strictly less than 4 h; FALSE when t1/2 is not.

>  <compound>
CC(=O)N[C@H]1CC(=O)NCCCC[C@@H](C(=O)N[C@@H](CCCNC(=N)N)C(=O)c2nc3ccccc3s2)NC(=O)CNC1=O

>  <assigned.category>
FALSE

$$$$
>  <compound>
CC(=O)N[C@H]1CC(=O)NCCCC[C@@H](C(=O)N[C@@H](CCCNC(=N)N)C(=O)c2nc3ccccc3s2)NC(=O)[C@H]([C@@H](C)O)NC1=O

>  <assigned.category>
TRUE

$$$$
>  <compound>
CC(=O)N[C@H]1CC(=O)NCCCC[C@@H](C(=O)N[C@@H](CCCNC(=N)N)C(=O)c2nc3ccccc3s2)NC(=O)[C@H](CC(C)C)NC1=O

>  <assigned.category>
TRUE

$$$$
>  <compound>
CC(=O)N[C@H]1CC(=O)NCCCC[C@@H](C(=O)N[C@@H](CCCNC(=N)N)C(=O)c2nc3ccccc3s2)NC(=O)[C@H](Cc2ccc(O)cc2)NC1=O

>  <assigned.category>
FALSE

$$$$
>  <compound>
CC(=O)N[C@H]1CC(=O)N(C)CCCC[C@@H](C(=O)N[C@@H](CCCNC(=N)N)C(=O)c2nc3ccccc3s2)NC(=O)[C@H](CC(C)C)NC1=O

>  <assigned.category>
FALSE

$$$$
>  <compound>
CC(=O)N[C@H]1CCCCNC(=O)C[C@@H](C(=O)N[C@@H](CCCNC(=N)N)C(=O)c2nc3ccccc3s2)NC(=O)[C@H](CC(C)C)NC1=O

>  <assigned.category>
TRUE

$$$$
>  <compound>
CC(=O)N[C@H]1CC(=O)NCCCC[C@@H](C(=O)N[C@@H](CCCNC(=N)N)C(=O)c2nccs2)NC(=O)[C@H](CC(C)C)NC1=O

>  <assigned.category>
FALSE

$$$$
>  <compound>
CC(=O)N[C@H]1CC(=O)NCCCC[C@@H](C(=O)N[C@@H](CCCNC(=N)N)C(=O)c2nc3ccccc3s2)NC(=O)[C@H](CCC(N)=O)NC1=O

>  <assigned.category>
FALSE

$$$$
>  <compound>
CC(=O)N[C@H]1CC(=O)NCCCC[C@@H](C(=O)N[C@@H](CCCNC(=N)N)C(=O)c2nc3ccccc3s2)NC(=O)[C@H](C)NC1=O

>  <assigned.category>
FALSE

$$$$
>  <compound>
CC(=O)N[C@@H](CO)C(=O)N[C@@H](CCCCN)C(=O)N[C@@H](CC(C)C)C(=O)N[C@@H](CCCNC(=N)N)C(=O)c1nc2ccc(C(=O)N[C@H](C(N)=O)C(C)C)cc2s1 (Ac-SKL[X1]V-NH2)

>  <assigned.category>
TRUE

$$$$
>  <compound>
CC(=O)N[C@H]1CC(=O)NCCCC[C@@H](C(=O)N[C@@H](CCCNC(=N)N)C(=O)c2nc3ccccc3s2)NC(=O)[C@H](Cc2ccccc2)NC1=O

>  <assigned.category>
FALSE

$$$$
>  <compound>
CSCC[C@@H]1NC(=O)[C@@H](NC(C)=O)CC(=O)NCCCC[C@@H](C(=O)N[C@@H](CCCNC(=N)N)C(=O)c2nc3ccccc3s2)NC1=O

>  <assigned.category>
FALSE

$$$$
